- Assayed system: PAR4 (Homo sapiens (Human), UniProt Q96RI0)
- Sequence (Q96RI0 18-385): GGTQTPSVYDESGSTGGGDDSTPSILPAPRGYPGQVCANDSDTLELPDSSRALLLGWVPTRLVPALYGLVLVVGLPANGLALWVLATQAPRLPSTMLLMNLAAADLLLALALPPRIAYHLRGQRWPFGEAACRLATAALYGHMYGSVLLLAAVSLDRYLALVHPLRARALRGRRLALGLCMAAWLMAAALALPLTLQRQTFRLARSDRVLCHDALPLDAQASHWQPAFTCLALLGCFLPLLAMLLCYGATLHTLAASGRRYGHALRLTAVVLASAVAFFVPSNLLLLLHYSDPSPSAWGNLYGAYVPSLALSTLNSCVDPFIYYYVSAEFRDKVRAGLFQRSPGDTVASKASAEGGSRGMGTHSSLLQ
- Test description: Gamma thrombin induced platelet aggregation assay (PRP assay)
- Condition summary: human platelet rich plasma, 96-well microplate

Compound	Endpoint unit	IC50
CCC(F)(CC)c1nc(COc2cc(OC)cc3oc(-c4cn5nc(OC)sc5n4)cc23)cs1	µM	0.024
COc1cc(OCc2csc(C3(O)CCC(C(=O)N(C)CC#N)CC3)n2)c2cc(-c3cn4nc(OC)sc4n3)oc2c1 (stereo not drawn)	µM	0.028
COc1cc(OCc2csc(N3CCN(c4cccc(Cl)c4)CC3)n2)c2cc(-c3cn4nc(C)ccc4n3)oc2c1	µM	2.36
COc1cc(OCc2csc(-c3ccc(C(=O)N(C)CCC#N)cc3)n2)c2cc(-c3cn4nc(OC)sc4n3)oc2c1	µM	0.002
COc1cc(OCc2csc(N3CCN(c4ccc(C)cn4)CC3)n2)c2cc(-c3cn4nc(C)ccc4n3)oc2c1	µM	2.34
COc1cc(OCc2csc(-c3ccc(C)nc3)n2)c2cc(-c3cn4nc(OC)sc4n3)oc2c1	µM	0.00096
CCc1sc(-c2ccc(C(=O)N(C)C)cc2)nc1COc1cc(OC)cc2oc(-c3cn4nc(OC)sc4n3)cc12	µM	0.002
COc1cc(OCc2csc(NCc3cccnc3)n2)c2cc(-c3cn4nc(C)ccc4n3)oc2c1	µM	3.13

The reported numbers originate from patent US9688695B2.
